Listed below: IC50 values for each entry.
target: Sodium/glucose cotransporter 1 (Homo sapiens, UniProt P13866); test: Inhibition of human full length SGLT1 expressed in NIH3T3 cells measured after 1 hr in presence of [14C]-methyl-alpha -D-glucopyranoside by scintillation counter method; assay type: cell-based
Sequence (P13866 whole entry): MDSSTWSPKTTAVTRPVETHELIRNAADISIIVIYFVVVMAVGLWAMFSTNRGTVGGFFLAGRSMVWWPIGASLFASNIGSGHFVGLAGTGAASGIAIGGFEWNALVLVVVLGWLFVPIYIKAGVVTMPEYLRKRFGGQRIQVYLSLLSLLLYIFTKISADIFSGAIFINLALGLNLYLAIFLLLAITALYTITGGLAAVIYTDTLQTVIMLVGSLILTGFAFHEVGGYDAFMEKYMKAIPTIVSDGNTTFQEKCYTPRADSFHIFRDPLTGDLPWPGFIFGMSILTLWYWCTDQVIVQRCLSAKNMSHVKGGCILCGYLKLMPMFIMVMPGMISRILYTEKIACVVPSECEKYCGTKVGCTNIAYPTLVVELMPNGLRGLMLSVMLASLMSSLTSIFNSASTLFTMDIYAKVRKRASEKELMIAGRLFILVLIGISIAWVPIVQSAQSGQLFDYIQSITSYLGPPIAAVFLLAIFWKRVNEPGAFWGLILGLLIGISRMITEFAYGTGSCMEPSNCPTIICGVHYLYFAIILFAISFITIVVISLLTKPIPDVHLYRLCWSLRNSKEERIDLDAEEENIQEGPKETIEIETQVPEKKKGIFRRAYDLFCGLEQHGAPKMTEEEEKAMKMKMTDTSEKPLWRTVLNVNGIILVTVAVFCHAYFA
Please give the number followed by its unit.

Cc1ccc(Cc2cc3c(cc2Cl)CO[C@]32O[C@H](C)[C@@H](O)[C@H](O)[C@H]2O)s1 :: 400 nM
C[C@H]1O[C@]2(OCc3cc(Cl)c(Cc4cc5ccccc5s4)cc32)[C@H](O)[C@@H](O)[C@@H]1O :: 2000 nM
C[C@H]1O[C@]2(OCc3cc(Cl)c(Cc4ccc(Cl)s4)cc32)[C@H](O)[C@@H](O)[C@@H]1O :: 500 nM
CCc1ccc(Cc2cc3c(cc2C)CO[C@]32O[C@H](C)[C@@H](O)[C@H](O)[C@H]2O)s1 :: 1000 nM

--- query ---
Exercise: GET /values?readout=IC50&system=Sodium/glucose cotransporter 1 (Homo sapiens, UniProt P13866)&item= `CCCOCCc1ccc(Cc2cc3c(cc2Cl)CO[C@]32O[C@H](C)[C@@H](O)[C@H](O)[C@H]2O)s1`
Solution: 5000 nM
